Just for reference, the RNAGym collection of RNA variant scans (doi:10.7554/elife.80360) is where these values come from.

B1: CPEB3 Ribozyme (parent)
chain: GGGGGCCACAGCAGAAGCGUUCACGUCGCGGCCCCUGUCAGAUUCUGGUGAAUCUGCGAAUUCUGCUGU

Variants of: B1
Test: self-cleavage, relative activity (ratio to wild type); higher = more cleavage; co-transcriptional
For each entry below, report its self-cleavage value.

Q. Item C7U G47U has what recorded self-cleavage?
A. 1.02

Q. Item A15G A59C has what recorded self-cleavage?
A. 0.649

Q. Item C27U A40C has what recorded self-cleavage?
A. 0.198

Q. Item C12U C29A has what recorded self-cleavage?
A. 0.451

Q. Item G4A G68C has what recorded self-cleavage?
A. 0.959

Q. Item A8U U67A has what recorded self-cleavage?
A. 1.03

Q. Item C24G G48A has what recorded self-cleavage?
A. 0.554

Q. Item C39U U43A has what recorded self-cleavage?
A. 0.49

Q. Item G17A G37U has what recorded self-cleavage?
A. 0.146

Q. Item C12U G30C has what recorded self-cleavage?
A. 0.67

Q. Item C33A C45A has what recorded self-cleavage?
A. 0.523

Q. Item U43C U44G has what recorded self-cleavage?
A. 0.904

Q. Item U26G C57U has what recorded self-cleavage?
A. 0.255

Q. Item G1C U38A has what recorded self-cleavage?
A. 0.267

Q. Item C39U G41C has what recorded self-cleavage?
A. 0.445

Q. Item A13C G37C has what recorded self-cleavage?
A. 0.156

Q. Item A10U U69G has what recorded self-cleavage?
A. 1.06

Q. Item G17A U61A has what recorded self-cleavage?
A. 0.231

Q. Item G30A A51C has what recorded self-cleavage?
A. 0.718

Q. Item C6A C34A has what recorded self-cleavage?
A. 0.153

Q. Item G2A U61A has what recorded self-cleavage?
A. 0.0537

Q. Item G31U A59G has what recorded self-cleavage?
A. 0.514
